Test system: giant foxtail
Assay: Test B pre/postemergence giant foxtail
Format: in vivo, Setaria faberii
Settings: Postemergence, Rate 125 g/ha; scale 0 to 10, 0 is no effect, 10 is complete control
# maps each entry to its Giant foxtail plant response rating
Enter the number alone.

Check out these entries, answers already filled in.
C=C(Cn1c(=O)on(C(=O)N(c2ccccc2)C(C)C)c1=O)c1cccnc1 | 2
CC(=O)OCCCCn1c(=O)on(C(=O)N(c2ccccc2)C(C)C)c1=O | 0
CC(C)=CCn1c(=O)on(C(=O)N(c2ccccc2)C(C)C)c1=O | 7
CC(Cl)=CCn1c(=O)on(C(=O)N(c2ccc(Cl)cc2)C(C)C)c1=O | 0

Turning now to a further compound:
## Task Consider the compound shown here: CC(C)N(C(=O)n1oc(=O)n(Cc2cnc(Cl)s2)c1=O)c1ccc(F)cc1 What is its recorded Giant foxtail plant response rating?
## Result 0

====

System: bedstraw
Assay: Test B pre/postemergence bedstraw
Assay type: in vivo, Galium aparine
Conditions: Preemergence, Rate 125 g/ha; scale 0 to 10, 0 is no effect, 10 is complete control
# maps each entry to its Bedstraw plant response rating
Enter the number alone.

CC(=O)OCCCCn1c(=O)on(C(=O)N(c2ccccc2)C(C)C)c1=O [Compound 565] | 0
CCOCn1c(=O)on(C(=O)N(c2ccc(F)cc2F)C(C)C)c1=O [Compound 504] | 5
CC(C)N(C(=O)n1oc(=O)n(C(C)C(=O)c2ccccc2)c1=O)c1ccc(Cl)cc1 (centres unmarked) [Compound 541] | 0
CC(C)N(C(=O)n1oc(=O)n(CC[N+](=O)[O-])c1=O)c1ccc(Cl)cc1 [Compound 483] | 0

Turning now to a further compound:
## Task Consider the compound shown here: Cc1noc(C)c1Cn1c(=O)on(C(=O)N(c2ccc(Cl)cc2)C(C)C)c1=O [Compound 540] What is its recorded Bedstraw plant response rating?
## Result 0

====

System: giant foxtail
Assay: Test B pre/postemergence giant foxtail
Format: in vivo, Setaria faberii
Details: Preemergence, Rate 500 g/ha; scale of 0 to 10 where 0 is no effect and 10 is complete control
outcome.measure: Plant response rating, Giant foxtail
Enter the number alone.

Check out these entries, answers already filled in.
Cc1ccccc1-n1c(=O)on(C(=O)N(c2ccccc2F)C(C)C)c1=O | 10
CC(C)N(C(=O)n1oc(=O)n(C2CCCC2)c1=O)c1ccc(Cl)cc1 | 10
CC(C)N(C(=O)n1oc(=O)n(CCCC#N)c1=O)c1ccccc1 | 10
CC(=O)NCn1c(=O)on(C(=O)N(c2ccc(F)cc2F)C(C)C)c1=O | 9
CCC(C)N(C(=O)n1oc(=O)n(-c2ccccc2C)c1=O)c1ccc(F)cc1 (stereo not drawn) | 10

Turning now to a further compound:
## Task Consider the compound shown here: CC(C)N(C(=O)n1oc(=O)n(CCC2CCCCC2)c1=O)c1ccc(F)cc1 What is its recorded Plant response rating, Giant foxtail?
## Result 9

====

Tested on: bamyardgrass
Assay: Test B flood test barnyardgrass
Assay type: in vivo, Echinochloa crus-galli
Conditions: Rate 125 g/ha; Pre-emergence; flood test species; scale 0 to 10 where 0 is no effect and 10 is complete control
outcome.measure: Barnyardgrass plant response rating
Enter the number alone.

Cc1ccccc1-n1c(=O)on(C(=O)N(c2ccncc2)C(C)C)c1=O | 0
CC(C)N(C(=O)n1oc(=O)n(Cc2cccnc2)c1=O)c1ccc(F)cc1 | 0
CC(C)N(C(=O)n1oc(=O)n(C2CCCCCC2)c1=O)c1ccccc1 | 8

Turning now to a further compound:
## Task Form: Entry = Cc1ccccc1-n1c(=O)on(C(=O)N(c2cccc(F)c2)C(C)C)c1=O | System = bamyardgrass | Barnyardgrass plant response rating = ____
## Result 0
